- target: Dihydrofolate reductase (Lacticaseibacillus casei, UniProt P00381)
- Sequence (P00381 whole entry): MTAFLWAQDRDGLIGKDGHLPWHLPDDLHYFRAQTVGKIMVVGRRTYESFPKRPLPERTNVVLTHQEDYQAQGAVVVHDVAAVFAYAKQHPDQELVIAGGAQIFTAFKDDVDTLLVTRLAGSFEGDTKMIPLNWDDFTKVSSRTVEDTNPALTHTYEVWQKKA
- method: Inhibitory activity against dihydrofolate reductase (DHFR) from Lactobacillus casei (expressed as log 1/Kiapp)
measurement-name: Ki (nM)

Nc1ncc(Cc2cc(CO)cc(CO)c2)c(N)n1: 1860

(1) COCc1cccc(Cc2cnc(N)nc2N)c1
(2) COc1ccc(Cc2cnc(N)nc2N)cc1OC [Diaveridine]
Record comparison, field Ki: mark the lower of 1 and 2 . Identify your pick by its label.
2
(2: 120 nM, 1: 2290 nM)

====

Assay system Dihydrofolate reductase (Lacticaseibacillus casei, UniProt P00381); read-out recorded as Ki.
measurement-name: Ki (µM)

Check out these entries, answers already filled in.
CC(=O)Nc1ccc(Cc2cnc(N)nc2N)cc1: 0.891
Nc1ncc(Cc2cccc(Cl)c2)c(N)n1: 1.26

(P) COc1ccc(Cc2cnc(N)nc2N)cc1C(F)(F)F
(Q) CCCCCCOc1ccc(Cc2cnc(N)nc2N)cc1
(R) CC(=O)Nc1ccc(Cc2cnc(N)nc2N)cc1[N+](=O)[O-]
(S) Nc1ccc(Cc2cnc(N)nc2N)cc1
Rank entries according to their Ki, from the largest number down. List each label, following the requested order.
S, Q, R, P
(S: 3.39 µM, Q: 1.86 µM, R: 1 µM, P: 0.05 µM)

(P) Nc1ncc(Cc2cccc(O)c2)c(N)n1
(Q) Nc1ncc(Cc2cccc(C(F)(F)F)c2)c(N)n1
(R) CCCCCCCOc1ccc(Cc2cnc(N)nc2N)cc1
(S) Nc1ncc(Cc2ccc([N+](=O)[O-])cc2)c(N)n1
Arrange these 4 compounds in increasing order of Ki. Field: ranking. Enter the labels in the order requested.
Q, S, P, R

(a) Nc1ncc(Cc2ccc(O)c(O)c2)c(N)n1
(b) Nc1ncc(Cc2cccc(CO)c2)c(N)n1
Hey, which is lower on measured Ki, a or b ? Identify your pick by its label.
a
